Test: Determination of aqueous (kinetic) solubility
Type: physicochemical
Conditions: aqueous buffer, kinetic from dmso stock, buffer pH 7.4
Recorded solubility for the following molecules

{"Molecule": "C[C@H](C(N)=O)n1ccc2c(NC(=O)Cc3ccc(F)c(C(F)(F)F)c3)cccc2c1=O [Compound 304]", "solubility": "< 25 µM"}
{"Molecule": "C[C@H](C(N)=O)n1ccc2c(NC(=O)Cc3ccc(Cl)cc3)cccc2c1=O [Compound 256]", "solubility": "< 25 µM"}
{"Molecule": "C[C@H](CO)n1ccc2c(NC(=O)Cc3ccc(C(F)(F)F)c(F)c3)cccc2c1=O [Compound 335]", "solubility": "> 75 µM"}

For this molecule ( C[C@H](C(N)=O)n1ccc2c(NC(=O)Cc3ccc(C(F)(F)F)cc3)c(Cl)ccc2c1=O [Compound 316] ), measured solubility is < 25 µM

---

Target: P2X7 receptor (Homo sapiens)
Construct: host or cells: THP-1 cells differentiated with LPS and IFN-γ
Sequence (Q99572 1-595): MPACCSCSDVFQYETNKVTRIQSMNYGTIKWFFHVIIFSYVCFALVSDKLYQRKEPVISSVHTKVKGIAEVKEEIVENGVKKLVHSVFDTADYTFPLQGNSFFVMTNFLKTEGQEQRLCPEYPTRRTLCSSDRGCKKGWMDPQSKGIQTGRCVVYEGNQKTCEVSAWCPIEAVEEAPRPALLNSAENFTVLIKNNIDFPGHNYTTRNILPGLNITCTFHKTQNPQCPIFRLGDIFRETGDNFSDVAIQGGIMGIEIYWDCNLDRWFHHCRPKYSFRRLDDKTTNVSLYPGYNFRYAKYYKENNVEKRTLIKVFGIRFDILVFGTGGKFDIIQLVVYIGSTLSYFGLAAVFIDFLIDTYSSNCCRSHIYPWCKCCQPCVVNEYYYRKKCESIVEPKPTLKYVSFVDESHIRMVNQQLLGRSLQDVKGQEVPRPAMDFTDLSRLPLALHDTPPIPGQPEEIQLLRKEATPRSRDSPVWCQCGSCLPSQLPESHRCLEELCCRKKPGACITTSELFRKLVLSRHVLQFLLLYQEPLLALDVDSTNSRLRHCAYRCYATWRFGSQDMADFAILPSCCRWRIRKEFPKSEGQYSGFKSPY
Assay: IL-1β release assay in differentiated THP-1 cells stimulated with BzATP (Example 9)
Type: cell-based
Details: 0.3 μM compound; differentiated THP-1 cells, BzATP 250 uM; "+" symbols; read-out: IL-1β % Inhib. @ 0.3 or 0.1 uM
Endpoint: inhibition at 0.3 µM

Examples with their reported inhibition at 0.3 µM follow.
{"Molecule": "Cc1ccc2c(=O)n(CCO)ccc2c1NC(=O)Cc1cccc(C(F)(F)F)c1F", "inhibition at 0.3 µM": "> 76%"}
{"Molecule": "C[C@H](C(N)=O)n1ccc2c(NC(=O)Cc3ccc(F)cc3C(F)(F)F)cccc2c1=O", "inhibition at 0.3 µM": "51 to 75%"}
{"Molecule": "NC(=O)Cn1ccc2c(NC(=O)Cc3ccc(Cl)c(C(F)(F)F)c3)cccc2c1=O", "inhibition at 0.3 µM": "> 76%"}
{"Molecule": "CC(C)(CO)n1ccc2c(NC(=O)Cc3ccc(C(F)(F)F)cc3)cccc2c1=O", "inhibition at 0.3 µM": "51 to 75%"}
{"Molecule": "CC(C)[C@H](C(N)=O)n1ccc2c(NC(=O)[C@@H](C)c3ccc(Cl)cc3)cccc2c1=O", "inhibition at 0.3 µM": "> 76%"}
{"Molecule": "C[C@H](CO)n1ccc2c(NC(=O)Cc3ccc(Cl)cc3F)cccc2c1=O", "inhibition at 0.3 µM": "> 76%"}
{"Molecule": "C[C@@H](CO)n1ccc2c(NC(=O)Cc3ccc(Cl)cc3F)cccc2c1=O", "inhibition at 0.3 µM": "51 to 75%"}
{"Molecule": "C[C@H](C(=O)Nc1cccc2c(=O)n([C@@H](C(N)=O)c3ccccc3)ccc12)c1ccc(Cl)cc1", "inhibition at 0.3 µM": "> 76%"}
{"Molecule": "CC(C)(CO)n1ccc2c(NC(=O)Cc3ccc(C(F)(F)F)c(F)c3)cccc2c1=O", "inhibition at 0.3 µM": "> 76%"}

Read the next record carefully.
Quick note, inhibition at 0.3 µM for `O=C(Cc1ccc(C(F)(F)F)cc1C(F)(F)F)Nc1cccc2c(=O)n(CCO)ccc12` landed at > 76%

---

Experiment: Half-life in human liver microsomes (HLM)
Conditions: pH 7.4
Endpoint: half-life at 1 μM (h)

Below: 3 compounds and their reported half-life at 1 μM.
{"Compound": "C[C@H](CO)n1ccc2c(NC(=O)Cc3ccc(Cl)c(C(F)(F)F)c3)cccc2c1=O", "Result units": "h", "half-life at 1 μM": 0.97}
{"Compound": "C[C@H](CO)n1ccc2c(NC(=O)Cc3ccc(C(F)(F)F)cc3F)cccc2c1=O", "Result units": "h", "half-life at 1 μM": 1.16}
{"Compound": "C[C@H](C(N)=O)n1ccc2c(NC(=O)Cc3ccc(C(F)(F)F)cc3)c(Cl)ccc2c1=O", "Result units": "h", "half-life at 1 μM": 3.25}

[I] C[C@H](CO)n1ccc2c(NC(=O)Cc3ccc(Cl)c(F)c3)c(Cl)ccc2c1=O
[II] C[C@H](CO)n1ccc2c(NC(=O)Cc3ccc(Cl)c(Cl)c3)c(Cl)ccc2c1=O
[III] O=C(Cc1ccc(Cl)cc1)Nc1cccc2c(=O)n(CCO)ccc12
Hello, I need these entries ordered by half-life at 1 μM, highest reading first. Thanks! # format: label list in the order the request specifies
III, I, II
(III: 1.97 h, I: 1.34 h, II: 0.9 h)

[P] O=C(Cc1ccc(C(F)(F)F)c(F)c1)Nc1cccc2c(=O)n(CCO)ccc12
[Q] C[C@H](CO)n1ccc2c(NC(=O)Cc3cccc(C(F)(F)F)c3F)cccc2c1=O
# argmax over half-life at 1 μM for candidates P and Q API: response body contains the label of the selected item.
P
(P: 1.54 h, Q: 0.7 h)

[P] C[C@H](CO)n1ccc2c(NC(=O)Cc3ccc(C(F)(F)F)cc3)cccc2c1=O
[Q] O=C(CCc1cc(C(F)(F)F)ccc1C(F)(F)F)Nc1cccc2c(=O)n(CCO)ccc12
Higher half-life at 1 μM between P and Q ? Answer format: the label of the selected item.
P
(P: 1.22 h, Q: 0.37 h)

[a] Cc1ccc2c(=O)n(CCO)ccc2c1NC(=O)Cc1ccc(C(F)(F)F)c(F)c1
[b] CC(C(=O)Nc1cccc2c(=O)n([C@H](C)C(N)=O)ccc12)c1ccc(Cl)c(C(F)(F)F)c1 (stereo partly shown)
Which record shows the lower half-life at 1 μM: the first, a , or the second, b ? Select an item and report its label.
b
(b: 1.28 h, a: 3.73 h)

[I] C[C@H](C(N)=O)n1ccc2c(NC(=O)Cc3ccc(C(F)(F)F)cc3)cccc2c1=O
[II] C[C@H](C(N)=O)n1ccc2c(NC(=O)Cc3ccc(Cl)c(C(F)(F)F)c3)cccc2c1=O
[III] C[C@H](CO)n1ccc2c(NC(=O)Cc3ccc(C(F)(F)F)c(F)c3)cccc2c1=O
# desc sort on half-life at 1 μM across 3 compounds Write the labels out in the order the request specifies.
I, II, III
(I: 3.35 h, II: 1.59 h, III: 0.93 h)

---

Target: P2X7 receptor (Homo sapiens, UniProt Q99572)
Construct: host or cells: THP-1 cells differentiated with LPS and IFN-γ
Sequence (Q99572 1-595): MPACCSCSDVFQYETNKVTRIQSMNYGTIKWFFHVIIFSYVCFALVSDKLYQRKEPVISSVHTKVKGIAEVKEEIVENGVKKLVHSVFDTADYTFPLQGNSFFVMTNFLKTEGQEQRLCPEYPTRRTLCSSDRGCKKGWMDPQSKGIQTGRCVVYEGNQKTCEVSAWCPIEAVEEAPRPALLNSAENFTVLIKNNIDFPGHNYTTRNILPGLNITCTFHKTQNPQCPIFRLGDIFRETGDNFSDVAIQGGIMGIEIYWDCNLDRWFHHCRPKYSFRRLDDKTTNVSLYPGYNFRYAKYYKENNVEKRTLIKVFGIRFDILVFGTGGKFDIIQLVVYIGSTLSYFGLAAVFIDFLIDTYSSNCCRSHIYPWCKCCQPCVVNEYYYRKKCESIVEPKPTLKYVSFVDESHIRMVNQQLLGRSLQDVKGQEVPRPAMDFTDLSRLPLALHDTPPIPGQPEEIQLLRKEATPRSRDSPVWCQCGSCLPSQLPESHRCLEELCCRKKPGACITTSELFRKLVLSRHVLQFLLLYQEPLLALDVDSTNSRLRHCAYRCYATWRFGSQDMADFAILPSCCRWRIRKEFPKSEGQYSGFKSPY
Experiment: IL-1β release assay in differentiated THP-1 cells stimulated with BzATP (Example 9)
Format: cell-based
Settings: 0.3 μM compound (symbols +); differentiated THP-1 cells, BzATP 250 uM; read-out: IL-1β % Inhib. @ 0.3 or 0.1 uM
Endpoint: inhibition at 0.3 µM

{"Molecule": "O=C(Cc1ccc2c(c1)OCO2)Nc1cccc2c(=O)n(CC3(O)CCCCC3)ccc12", "Experimental system": "P2X7 receptor (Homo sapiens, UniProt Q99572)", "inhibition at 0.3 µM": "0 to 25%"}
{"Molecule": "O=C(CCc1cccc(Cl)c1)Nc1cccc2c(=O)n(CC3(O)CCCCC3)ccc12", "Experimental system": "P2X7 receptor (Homo sapiens, UniProt Q99572)", "inhibition at 0.3 µM": "26 to 50%"}

Noted for `O=C(CCc1cc(C(F)(F)F)cc(C(F)(F)F)c1)Nc1cccc2c(=O)n(CCO)ccc12` : its inhibition at 0.3 µM reads 0 to 25%

Please fill in: inhibition at 0.3 µM reported for `O=C(Cc1ccc(Cl)c(C(F)(F)F)c1)Nc1cccc2c(=O)n(C(CO)CO)ccc12` = > 76%

// recorded inhibition at 0.3 µM for `Cc1cccc(CC(=O)Nc2cccc3c(=O)n(CC4(O)CCCCC4)ccc23)c1` : 0 to 25%
